This listing pairs compounds with measured GI50.
# System: UACC-257 melanoma
# Procedure text: NCI tumour cell line growth inhibition, 48 h
Quantity: GI50

Compound: CCN1C(=O)N(CC)C2C1NN=c1s/c(=C\c3ccc([N+](=O)[O-])cc3)c(=O)n12 (centres undefined)
Quantity: GI50
Result: 1170 nM
//
Compound: Cn1cccc1C1CC(=O)N(CCC[Se]C#N)C1=O (centres undefined)
Quantity: GI50
Result: 1950 nM
//
Compound: NCCCNCCCNc1nc2ccccc2c2[nH]c3ccccc3c12
Quantity: GI50
Result: 2310 nM
//
Compound: CN(C)c1ccc(N=C(C#N)c2nc(N)nc(N3CCOCC3)n2)cc1
Quantity: GI50
Result: > 100000 nM
